Molecular target: PRMT5/MEP50 complex (Homo sapiens (Human), UniProt O14744)
Sequence (O14744 2-637): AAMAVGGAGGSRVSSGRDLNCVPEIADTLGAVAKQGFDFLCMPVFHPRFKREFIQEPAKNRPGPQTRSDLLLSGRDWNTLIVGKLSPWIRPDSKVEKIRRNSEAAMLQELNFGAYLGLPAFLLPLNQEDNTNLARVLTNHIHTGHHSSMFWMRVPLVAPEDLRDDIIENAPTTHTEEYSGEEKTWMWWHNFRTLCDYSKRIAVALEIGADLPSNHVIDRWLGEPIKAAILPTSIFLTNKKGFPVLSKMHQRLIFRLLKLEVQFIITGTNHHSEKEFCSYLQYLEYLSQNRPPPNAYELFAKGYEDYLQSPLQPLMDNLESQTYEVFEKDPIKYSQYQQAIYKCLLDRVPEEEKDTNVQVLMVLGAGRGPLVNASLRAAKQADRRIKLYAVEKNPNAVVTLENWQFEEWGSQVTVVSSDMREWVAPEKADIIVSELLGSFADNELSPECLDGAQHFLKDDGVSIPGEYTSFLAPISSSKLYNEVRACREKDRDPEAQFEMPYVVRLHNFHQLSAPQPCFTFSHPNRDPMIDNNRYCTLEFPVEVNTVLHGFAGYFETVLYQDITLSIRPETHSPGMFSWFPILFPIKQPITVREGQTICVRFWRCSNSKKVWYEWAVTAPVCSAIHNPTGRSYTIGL
Sequence (Q9BQA1 2-342 partner): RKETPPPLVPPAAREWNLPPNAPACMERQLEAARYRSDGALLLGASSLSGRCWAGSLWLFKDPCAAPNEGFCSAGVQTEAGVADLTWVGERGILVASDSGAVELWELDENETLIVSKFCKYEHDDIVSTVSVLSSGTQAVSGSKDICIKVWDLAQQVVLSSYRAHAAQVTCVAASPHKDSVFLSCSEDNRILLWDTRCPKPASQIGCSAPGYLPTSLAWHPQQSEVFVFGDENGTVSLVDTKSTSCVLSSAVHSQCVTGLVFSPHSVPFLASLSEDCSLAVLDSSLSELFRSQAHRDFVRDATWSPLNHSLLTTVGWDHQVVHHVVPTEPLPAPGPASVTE
Test: PRMT5:MEP50 FlashPlate Assay (histone H4 peptide substrate, plus and minus MTA)
Assay type: biochemical
Settings: in the absence of MTA, read-out: IC50
pIC50: −log10 of the molar value.
Property Label: pIC50

Some molecules with known pIC50 results, for comparison:
>>> numeric_result("CCn1cc(-c2ccc3c(=O)[nH]nc(CN)c3c2)cn1")
4.73
>>> numeric_result("Cc1ccc(C#N)c(-c2cncc(-c3ccc4c(=O)[nH]nc(CN)c4c3)c2)c1")
6.03

(I) Cc1ccc(Sc2cncc(-c3ccc4c(=O)[nH]nc(CN)c4c3)c2)cc1
(II) NCc1n[nH]c(=O)c2ccc(-c3cnn4c3CN(C(=O)C3CCCCC3)CC4)cc12
Between I and II , whose measured pIC50 reads higher? Give the chosen item's label as your response. I

---

Molecular target: PRMT5/MEP50 complex (Homo sapiens (Human))
Assay: PRMT5:MEP50 HotSpot Assay (full-length histone H2A substrate, plus and minus MTA)
Type: biochemical
Settings: read-out: IC50 + 2 μM MTA; in the presence of 2 μM MTA
Property Label: IC50 (µM)

>>> numeric_result("Cn1ncc(-c2ccc3c(=O)[nH]nc(CN)c3c2)c1-c1c(F)cc2ccccc2c1C#N (single isomer, unassigned) [Example 16-1]")
0.038

(I) Cn1ncc(-c2ccc3c(=O)[nH]nc(CN)c3c2)c1-c1c(C#N)cc2ccccc2c1Cl (single isomer, unassigned) [Example 16-5]
(II) Cn1ncc(-c2ccc3c(=O)[nH]nc(CN)c3c2)c1-c1c(C#N)cc2ccccc2c1Cl (single isomer, unassigned) [Example 16-6]
(III) Cn1ncc(-c2ccc3c(=O)[nH]nc(CN)c3c2)c1-c1c(F)cc2ccccc2c1C#N (single isomer, unassigned) [Example 16-2]
Rank the 3 compounds: largest IC50 first, smallest last. Returns: the labels listed in the requested order. I, III, II

---

Target: PRMT5/MEP50 complex (Homo sapiens (Human))
Test: PRMT5:MEP50 HotSpot Assay (full-length histone H2A substrate, plus and minus MTA)
Type: biochemical
Details: IC50 + 2 μM MTA, in the presence of 2 μM MTA
Property Label: IC50 (nM)

>>> numeric_result("Cc1cc(C#N)c(-c2c(-c3ccc4c(=O)[nH]nc(CN)c4c3)cnn2C)cc1Cl")
2540

(a) COc1cc(-c2c(-c3ccc4c(=O)[nH]nc(CN)c4c3)cnn2C)c(C#N)c2ccccc12
(b) Cn1ncc(-c2ccc3c(=O)[nH]nc(CN)c3c2)c1-c1ccc2ncccc2c1C#N
Of a and b , whose reported IC50 is numerically smaller? Give the chosen item's label as your response. a
(a: 23 nM, b: 282 nM)

---

Target: PRMT5/MEP50 complex (Homo sapiens (Human), UniProt O14744)
Experiment: PRMT5:MEP50 FlashPlate Assay (histone H4 peptide substrate, plus and minus MTA)
Assay type: biochemical
Conditions: IC50 + 2 μM MTA (nM), in the presence of 2 μM MTA
Property Label: IC50 (nM)

>>> numeric_result("N#Cc1ccn2c(-c3ccc4c(=O)[nH]nc(CN)c4c3)cnc2c1 [Example 4-35]")
1100
>>> numeric_result("Cc1ccncc1-c1ccc2c(=O)[nH]nc(CN)c2c1 [Example 3-19]")
180
>>> numeric_result("NCc1n[nH]c(=O)c2ccc(-c3cncc(S(=O)(=O)c4ccccc4)c3)cc12 [Example 4-52]")
18
>>> numeric_result("N#Cc1ccc(-c2cncc(-c3ccc4c(=O)[nH]nc(CN)c4c3)c2)c(C#N)c1 [Example 8-2]")
36
>>> numeric_result("NCc1n[nH]c(=O)c2ccc(-c3cncc(Oc4ccc(F)cc4)c3)cc12 [Example 7-3]")
15

(A) N#Cc1ccccc1Oc1cncc(-c2ccc3c(=O)[nH]nc(CN)c3c2)c1 [Example 7-2]
(B) N#Cc1ccc(Cl)cc1-c1cncc(-c2ccc3c(=O)[nH]nc(CN)c3c2)c1 [Example 8-6]
Between A and B , whose measured IC50 reads higher? Give the chosen item's label as your response. B

(I) COc1c(-c2ccc3c(=O)[nH]nc(CN)c3c2)cnn1C [Example 4-48]
(II) NCc1n[nH]c(=O)c2ccc(-c3cnn4c3CN(C(=O)C3CCCCC3)CC4)cc12 [Example 4-88]
Between I and II , whose measured IC50 reads higher? Give the chosen item's label as your response. II
(II: 45 nM, I: 22 nM)
